For each entry below, report its Plant response rating, Ducksalad value.
Tested on: ducksalad (Heteranthera limosa)
Test: Test C flooded paddy test: ducksalad
Assay type: in vivo
Settings: Flood (flooded paddy test), 125 g ai/ha; visual rating after 13 to 15 days, scale 0 to 100 (0 no effect, 100 complete control)
From the text: Plant species in the flooded paddy test consisted of rice (Oryza sativa), sedge, umbrella (small-flower umbrella sedge, Cyperus difformis), ducksalad (Heteranthera limosa) and barnyardgrass (Echinochloa crus-galli) grown to the 2-leaf stage for testing. […] Treated plants and controls were maintained in a greenhouse for 13 to 15 days, after which time all species were compared to controls and visually evaluated. […]

molecule: Cc1nn(-c2ccc(C(F)(F)F)cc2)nc1Cc1cccc(C(F)(F)F)c1 [Compound 124]
Plant response rating, Ducksalad: 90

Please supply Plant response rating, Ducksalad for each of the following items, keeping them in order.
1. Cc1nn(-c2ccc(C(F)(F)F)cc2)nc1Oc1ccc(C(F)(F)F)cc1 [Compound 83]
2. Cc1nn(-c2cccc(Cl)c2)nc1C(=O)c1cccc(C(F)(F)F)c1 [Compound 76]

A.
1: 20; 2: 0

Fill in Plant response rating, Ducksalad for each of the 3 molecules listed.
1. Cc1nn(-c2ccc(F)cc2)nc1Oc1ccnc(OCC(F)(F)F)c1 [Compound 71]
2. Cc1nn(-c2ccc(F)cc2)nc1Cn1cnc(C(F)(F)F)c1Cl [Compound 36]
3. CCc1nn(-c2ccc(C(F)(F)F)cn2)nc1Cc1cccc(C(F)(F)F)c1 [Compound 108]

A.
1: 0; 2: 0; 3: 30

// batch mode: one Plant response rating, Ducksalad value per listed entry
1. Cc1nn(-c2ccc(C(F)(F)F)cc2)nc1Oc1ccccc1Cl [Compound 82]
2. Cc1nn(-c2ccc(F)cc2)nc1Cc1ccnc(OCC(F)(F)F)c1 [Compound 33]

A.
[0, 0]

Q. Entry Cc1nn(-c2cccc([N+](=O)[O-])c2)nc1C(=O)c1cccc(C(F)(F)F)c1 [Compound 62] has what Plant response rating, Ducksalad?
A. 0

====

Would you mind telling me the reported Plant response rating, Crabgrass, Large of each entry?
system: large crabgrass (Digitaria sanguinalis); test: Test C pre-/postemergence: large crabgrass; format: in vivo; settings: Postemergence, 125 g ai/ha; scale 0 to 100, 0 no effect, 100 complete control
Give bare numbers.

compound: Cc1nn(-c2ccc(C(F)(F)F)c(F)c2)nc1Cc1ccnc(C(F)(F)F)c1 [Compound 162]
Plant response rating, Crabgrass, Large: 35

Give one value of Plant response rating, Crabgrass, Large per listed compound.
1. CCc1nn(-c2ccc(F)cc2)nc1Oc1ccnc(C(F)(F)F)c1 [Compound 166]
2. Cc1nn(-c2ccc(F)cc2)nc1Cc1ccnc(C(F)(F)F)c1 [Compound 16]

A.
1: 20; 2: 20

Q. Quick one: Plant response rating, Crabgrass, Large for Cc1nn(-c2ccc(C(F)(F)F)cc2)nc1Cc1cccc(C(F)(F)F)c1 [Compound 124] ?
A. 45

====

tested on: corn (Zea mays); assay: Test C pre-/postemergence: corn; format: in vivo; details: Preemergence, 62 g ai/ha; scale of 0 to 100, 0 is no effect, 100 is complete control
Give Plant response rating, Corn for every item shown.
Numbers only.

structure string: Cc1nn(-c2ccc(C(F)(F)F)c(F)c2)nc1Cc1ccnc(C(F)(F)F)c1
attribute measured: Plant response rating, Corn
recorded measurement: 20
--
structure string: Cc1nn(-c2ccc(F)c(F)c2)nc1Oc1ccnc(C(F)(F)F)c1
attribute measured: Plant response rating, Corn
recorded measurement: 10
--
structure string: Fc1ccc(-n2nc(Cc3ccnc(C(F)(F)F)c3)c(OCC(F)(F)F)n2)cc1
attribute measured: Plant response rating, Corn
recorded measurement: 5

Q. What does the data say about its Plant response rating, Corn? Entry: CCOc1nn(-c2ccc(F)cc2)nc1Cc1ccnc(C(F)F)c1
A. 5

The origin of these recorded values is patent US9302999B2.
